Entries and their PBM E-score
Target: Ecm22 (UniProt Q05958)
Sequence: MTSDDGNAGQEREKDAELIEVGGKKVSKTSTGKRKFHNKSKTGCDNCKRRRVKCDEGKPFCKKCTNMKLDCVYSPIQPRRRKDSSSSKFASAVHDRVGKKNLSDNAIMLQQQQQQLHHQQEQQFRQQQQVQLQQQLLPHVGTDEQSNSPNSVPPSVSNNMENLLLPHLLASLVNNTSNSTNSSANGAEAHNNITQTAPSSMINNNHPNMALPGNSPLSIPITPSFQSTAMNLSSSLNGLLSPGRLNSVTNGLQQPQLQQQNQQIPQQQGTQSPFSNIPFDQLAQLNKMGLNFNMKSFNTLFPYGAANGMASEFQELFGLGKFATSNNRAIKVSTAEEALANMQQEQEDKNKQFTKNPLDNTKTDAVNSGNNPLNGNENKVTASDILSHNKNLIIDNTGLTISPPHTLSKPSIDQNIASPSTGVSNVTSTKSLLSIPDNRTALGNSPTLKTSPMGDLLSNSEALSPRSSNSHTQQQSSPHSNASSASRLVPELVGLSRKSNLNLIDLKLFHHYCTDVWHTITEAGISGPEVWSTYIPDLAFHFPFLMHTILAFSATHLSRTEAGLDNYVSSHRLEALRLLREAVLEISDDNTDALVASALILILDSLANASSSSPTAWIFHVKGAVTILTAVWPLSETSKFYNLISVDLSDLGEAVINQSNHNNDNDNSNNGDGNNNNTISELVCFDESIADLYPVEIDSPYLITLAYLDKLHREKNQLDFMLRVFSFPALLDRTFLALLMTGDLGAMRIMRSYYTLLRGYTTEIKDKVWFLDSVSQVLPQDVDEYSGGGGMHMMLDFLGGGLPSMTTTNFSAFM
Assay: PBM E-score (8-mer binding enrichment) (E-score (-0.5 to 0.5)); higher = stronger / more preferred TF binding
Conditions: protein concentration: 200 nM; construct: GST-full length
Whole data set: some 33,000 sequences, median “E-score (-0.5 to 0.5)” near -0.041, cut for the highest 2% near 0.37. The list comes from a sample in which the highest values are over-represented; it also holds close analogues and randomly drawn sequences.
The answer should be written as a number, with no unit following it.

Here's what some known entries look like.
ACAGTAAT: -0.0196
TGGACCCA: -0.131
GGACCTCA: -0.206
ACACCCCT: -0.271
CGTTAAGA: 0.222

Entry CGTTAAGC has what PBM E-score?
0.4

Entry GAACGACA has what PBM E-score?
0.456

Entry AGACAGAA has what PBM E-score?
-0.0147

Entry CGTTAAAA has what PBM E-score?
0.287

Entry ACCTTAAC has what PBM E-score?
0.0365

###

Molecular target: Ecm22 (UniProt Q05958)
Sequence: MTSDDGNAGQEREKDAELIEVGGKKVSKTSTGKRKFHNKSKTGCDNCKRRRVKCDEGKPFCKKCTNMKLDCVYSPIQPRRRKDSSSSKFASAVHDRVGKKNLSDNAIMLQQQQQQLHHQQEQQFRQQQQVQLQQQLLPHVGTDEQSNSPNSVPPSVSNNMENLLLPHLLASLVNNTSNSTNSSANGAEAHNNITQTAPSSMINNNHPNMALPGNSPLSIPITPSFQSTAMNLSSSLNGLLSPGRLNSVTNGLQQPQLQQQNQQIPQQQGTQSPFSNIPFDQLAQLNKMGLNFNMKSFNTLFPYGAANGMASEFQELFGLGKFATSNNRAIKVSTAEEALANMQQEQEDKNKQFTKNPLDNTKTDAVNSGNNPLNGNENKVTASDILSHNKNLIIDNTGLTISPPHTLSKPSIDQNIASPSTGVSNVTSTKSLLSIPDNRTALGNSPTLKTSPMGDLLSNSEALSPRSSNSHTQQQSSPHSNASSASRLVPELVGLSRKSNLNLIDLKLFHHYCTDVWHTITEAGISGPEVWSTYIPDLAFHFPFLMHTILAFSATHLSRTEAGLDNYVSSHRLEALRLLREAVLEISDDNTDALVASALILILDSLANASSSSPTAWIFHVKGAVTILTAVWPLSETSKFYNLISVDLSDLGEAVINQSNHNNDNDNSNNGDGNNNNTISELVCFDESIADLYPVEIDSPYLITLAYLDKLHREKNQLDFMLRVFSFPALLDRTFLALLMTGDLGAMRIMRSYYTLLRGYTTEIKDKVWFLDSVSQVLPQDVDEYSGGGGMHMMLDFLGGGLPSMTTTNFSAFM
Assay: PBM E-score (8-mer binding enrichment) (E-score (-0.5 to 0.5)); higher = stronger / more preferred TF binding
Conditions: protein concentration: 200 nM; construct: GST-full length
The full ranking holds about 33,000 sequences; the median of “E-score (-0.5 to 0.5)” is about -0.041, and the highest 2% start at about 0.37. This excerpt belongs to a sample that is enriched for the highest values.
PARAMETER_MEASURED: PBM E-score
The answer should be written as a number, with no unit following it.

Here's what some known entries look like.
CGGGTACA: 0.157
TAGTGGCA: -0.179
ACGAAACA: 0.335

Please examine the following record next.
Entry CGAGTACG has what PBM E-score?
0.392
